test system: Avi-KRAS G12C (2-169) GTP/RAF1 RBD-3xFLAG (51-131) (Homo sapiens, UniProt P01116, G12C)
Construct: Avi-KRAS G12C (2-169)
Sequence (P01116 2-169 isoform P01116-2 G12C): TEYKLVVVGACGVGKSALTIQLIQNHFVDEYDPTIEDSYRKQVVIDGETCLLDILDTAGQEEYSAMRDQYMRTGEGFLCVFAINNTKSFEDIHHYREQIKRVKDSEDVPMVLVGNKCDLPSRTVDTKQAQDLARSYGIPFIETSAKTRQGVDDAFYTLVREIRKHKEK
assay summary: Raf1-KRAS G12C-GTP disruption HTRF assay (Biological Example 3)
Format: binding
measurement setup: KRAS G12C, GTP-loaded
pIC50: −log10 of the molar value.
readout kind: pIC50

[
  {
    "compound": "CCN(c1nc(OC[C@@]23CCCN2C[C@H](F)C3)nc2c(F)c(-c3ccc(F)c4sc(N)c(C#N)c34)c(C(F)(F)F)cc12)[C@H]1CCN(C(=O)c2nccs2)C1 (atropisomer, axis not shown)",
    "measurement": "6.00 to 7.00"
  },
  {
    "compound": "CCN(c1nc(OC[C@@]23CCCN2C[C@H](F)C3)nc2c(F)c(-c3ccc(F)c4sc(N)c(C#N)c34)c(C(F)(F)F)cc12)[C@@H]1CCCN(C)C1=O (atropisomer, axis not shown)",
    "measurement": "5.00 to 6.00"
  },
  {
    "compound": "CCN(c1nc(OC[C@@]23CCCN2C[C@H](F)C3)nc2c(F)c(-c3ccc(F)c4sc(N)c(C#N)c34)c(C(F)(F)F)cc12)[C@H]1CCN(C(=O)[C@H]2C[C@@H](F)C2)C1 (atropisomer, axis not shown)",
    "measurement": "6.00 to 7.00"
  },
  {
    "compound": "N#Cc1c(N)sc2c(F)ccc(-c3c(C(F)(F)F)cc4c(N5CCC(c6cccnc6)C5)nc(OC[C@@]56CCCN5C[C@H](F)C6)nc4c3F)c12 (some centres unmarked)",
    "measurement": "< 5.00"
  }
]

Recorded result, CCN(c1nc(OC[C@@]23CCCN2C[C@H](F)C3)nc2c(F)c(-c3ccc(F)c4sc(N)c(C#N)c34)c(C(F)(F)F)cc12)[C@H]1CCN(C(=O)N2CC(F)C2)C1 (atropisomer, axis not shown) , pIC50: ≥ 7.00

FYI, the data here is from patent US20260042764A1.
